All values here come from the supplement of paper PMC10567573.

B1: MLL5 (parent)
chain: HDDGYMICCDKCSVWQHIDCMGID

- Variants of: B1
- experimental details: protein stability index of a GFP-peptide fusion (GPS, HEK-293T) (PSI 1-6); higher = more stable;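 further: lentivirally expressed fusions sorted by FACS into six bins by GFP to DsRed ratio, PSI derived from sequencing read proportions per bin multiplied by bin number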
- measurement parameters: c terminus: a fixed tail appended
result type: protein stability index
Please give only the number in your answer, with no unit.

Completed entries (count: 6):
> print(dat)
                    chain.sequence  value.reported
1  HDDGYMICCDKCSVGQHIDCMGID [W15G]            4.18
2  HDDGYMICCDKCSCWQHIDCMGID [V14C]            2.57
3   GDDGYMICCDKCSVWQHIDCMGID [H1G]            2.25
4   HDEGYMICCDKCSVWQHIDCMGID [D3E]            2.95
5   HDDSYMICCDKCSVWQHIDCMGID [G4S]            2.38
6  HDDGYMICCDKCSVWQHIPCMGID [D19P]            2.33

Here is the next item to consider.
Exercise: Sample HDWGYMICCDKCSVWQHIDCMGID [D3W] — what was its protein stability index?
Key: 1.88
